Test system: OVCAR-8 ovarian
method_notes: NCI-60 one-dose screen, 48 h (100 = growth as untreated, 0 = no growth, -100 = all killed)
measurement_parameters: 10 µM
The panel holds about 83,000 compounds, 20% with a hit somewhere; the sample as a whole holds those more often.
observable: growth (%)
Answers are plain numbers, in %.

Here are 5 compounds together with their reported answers.
# compound, growth, %
records = [
    ("O=S(=O)(Cc1ccccc1)c1ccccc1", 102),
    ("Cc1ccc(C)n1-c1ccsc1C(=O)NNC(=O)CCl", 106),
    ("CCCOC(=O)C(O)c1ccccc1 (stereo unspecified)", 114),
    ("COc1ccc(C(O)c2ccccc2)cc1 (stereo unspecified)", 97.3),
    ("S=C(Nc1ccccc1)N1CCCCC1", 99.4),
]

Could you report growth for every entry in the following list?
1. O=c1cc(-c2ccccc2)nc2cc(-c3ccco3)[nH]n12
2. O=C1OC[C@H]2[C@H](c3ccc(O)c(O)c3)c3cc(O)c(O)cc3C[C@H]12
3. C#CC(C)(O)c1ccc(Cl)cc1 (stereo unspecified)

1. 101
2. 127
3. 105

For every item in the list below, what is its measured growth?
1. CCN=c1cc2sc3cc(NCC)c(C)cc3nc-2cc1C
2. C#CCSc1nnnn1-c1ccc(Br)c(C)c1
3. O=C1Cc2ccccc2C(=O)O1

1: -16.3; 2: 82.5; 3: 102

====

System: CCRF-CEM leukemia
method_notes: NCI-60 one-dose screen, 48 h (100 = growth as untreated, 0 = no growth, -100 = all killed)
measurement_parameters: 10 µM
This is part of a sample that, as a whole, favours compounds with a hit. Of some 83,000 tested, about 20% had one in any assay.
Is growth at least 90%? Then MET. If not, NOT MET.

# compound, label_class
records = [
    ("c1ccc(CN2COc3c(ccc4c3OCN(Cc3ccccc3)C4)C2)cc1", "NOT MET"),
    ("CCCCC(CC)COC(C)=O (centres undefined)", "MET"),
    ("COC(=O)c1ccccc1N(C)C", "MET"),
]

Threshold query (growth >= 90%) on CC1CC(O)C2C3(C)CCCC2(COC3=O)C12CCC1(CCOC1=O)O2 (centres undefined)
MET

====

Test system: EKVX NSCLC
method_notes: NCI-60 one-dose screen, 48 h (100 = growth as untreated, 0 = no growth, -100 = all killed)
measurement_parameters: 10 µM
This is part of a sample that, as a whole, favours compounds with a hit. Of some 83,000 tested, about 20% had one in any assay.
observable: growth (%)
Give bare numbers, in %.

# molecule, observable, observed_value
measured = [
    ("Cc1ccc(C)n1-c1ccsc1C(=O)NNC(=O)C(Cl)Cl", "growth", 92.5),
    ("CCCCOC(=O)c1ccc(C(C)C)cc1", "growth", 91.7),
    ("CCCCN(CCCC)CCCO", "growth", 110),
]

For every item in the list below, what is its measured growth?
1. COc1cc(C2NC(=O)C(C#N)=C(Nc3cccc(C)c3)S2)ccc1O (stereo unspecified)
2. COc1cc(CN)ccc1O
3. CCOc1ccc(/C=N/N=C(N)N)cc1OCC
4. O=C(O)CNC(=O)c1ccccc1
5. COc1ccc(NC(=O)CCl)cc1
6. O=C(CC(=O)c1ccccc1O)c1ccccc1
7. C#C[C@H]1CCCCCC1O (stereo partly specified)
8. NCC(=O)CCC(=O)O

1: 94.9; 2: 71.3; 3: 91.8; 4: 93.4; 5: 103; 6: 76.8; 7: 104; 8: 109

Parameter requested: growth. Apply to each item below.
1. O=[N+]([O-])c1ccc(-c2noc(-c3cccs3)n2)cc1
2. COC(=O)/C=C\C(=O)OC
3. O=c1cc(-c2ccccc2)[nH]c(=S)[nH]1
4. NC(=O)N/N=C\c1ccco1
5. Clc1ccc(-c2nnc(-c3cccc4ccccc34)o2)cc1

66.1
122
129
119
34
